# A405, TF/FVIIa/FX complex assay, Ab 3.13 nM per record follows
# target_of_assay: recombinant human TFPI (tissue factor pathway inhibitor) (human, UniProt P10646 29-304)
# assay_text: cell-based or functional assay
measured_quantity: A405, TF/FVIIa/FX complex assay, Ab 3.13 nM

clone 12 (antibody, V domains shown, human IgG4/kappa IgG as purified; also called No. 12 antibody) VH: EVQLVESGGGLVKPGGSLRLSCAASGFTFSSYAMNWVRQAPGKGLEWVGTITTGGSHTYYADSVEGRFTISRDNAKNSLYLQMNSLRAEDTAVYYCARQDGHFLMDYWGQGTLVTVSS VL: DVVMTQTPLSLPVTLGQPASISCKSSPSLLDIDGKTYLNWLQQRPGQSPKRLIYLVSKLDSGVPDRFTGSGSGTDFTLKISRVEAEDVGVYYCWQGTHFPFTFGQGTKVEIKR = 0.048
clone 13 (antibody, V domains shown) VH: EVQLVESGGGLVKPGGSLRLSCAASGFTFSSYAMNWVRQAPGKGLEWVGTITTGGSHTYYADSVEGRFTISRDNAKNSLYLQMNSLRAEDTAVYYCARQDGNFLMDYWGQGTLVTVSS VL: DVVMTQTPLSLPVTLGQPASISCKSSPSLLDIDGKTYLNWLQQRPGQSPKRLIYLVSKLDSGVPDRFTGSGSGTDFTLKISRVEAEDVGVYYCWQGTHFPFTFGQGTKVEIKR = 0.054
clone 1023 (antibody, V domains shown, scFv on yeast at selection; human IgG4/kappa IgG as purified) VH: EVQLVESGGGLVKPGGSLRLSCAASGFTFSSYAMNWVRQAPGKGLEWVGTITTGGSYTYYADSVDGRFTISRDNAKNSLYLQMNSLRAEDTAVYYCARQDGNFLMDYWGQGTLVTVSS VL: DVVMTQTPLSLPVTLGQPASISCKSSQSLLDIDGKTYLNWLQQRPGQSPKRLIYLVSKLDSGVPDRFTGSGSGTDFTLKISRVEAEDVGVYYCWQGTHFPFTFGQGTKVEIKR = 0.051
clone 1202 (antibody, V domains shown, scFv on yeast at selection; human IgG4/kappa IgG as purified; also called No. 1202 antibody) VH: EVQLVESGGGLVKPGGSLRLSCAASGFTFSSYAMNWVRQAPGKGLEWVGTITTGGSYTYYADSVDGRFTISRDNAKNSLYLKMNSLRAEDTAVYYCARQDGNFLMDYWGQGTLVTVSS VL: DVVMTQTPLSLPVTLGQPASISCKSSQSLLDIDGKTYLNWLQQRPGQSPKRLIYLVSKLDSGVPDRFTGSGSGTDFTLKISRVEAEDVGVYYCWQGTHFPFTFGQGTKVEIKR = 0.051
